tested on: UO-31 renal; test: NCI tumour cell line growth inhibition, 48 h; in the data active = GI50 below about 0.43 µM; inactive = the rest
Can you answer with just one of these options? 1.0 for active, 0.0 for inactive

- COc1cc(/C=C2\C(=O)N(Cc3ccc(Cl)cc3)c3ccccc32)cc(OC)c1OC: 0.0
- CCOC(=O)c1c(-c2ccccc2)[n+](=O)c2cc(Cl)c(Cl)cc2n1[O-]: 0.0
- CN1CCN(CC(=O)N(C)c2ccc(N=C(c3ccccc3)c3c(O)[nH]c4ccc(C#N)cc34)cc2)CC1: 0.0
- NC1NC=NC2C1N=CN2C1OC(CO)C2[O][Sn][O]C21 (configuration not stated): 0.0
- Clc1nccc2c(-c3csc(-c4c[nH]c5ccc(Br)cc45)n3)c[nH]c12: 0.0
- COc1cc2c(c(OC)c1OC)-c1ccc(SC)c(=O)cc1[C@@H](NCc1ccc(F)cc1)CC2: 1.0
- O=C1Nc2ccc(Br)cc2C12CC(c1ccccc1)=NN2 (configuration not stated): 0.0
- COc1cc2c(Nc3ccc(NC(=O)Nc4ccc(Cl)c(C(F)(F)F)c4)c(Cl)c3)ncnc2cc1OCCCN1CCN(C)CC1: 0.0
- CCN(CC)c1ccc(/C=C/C(=O)c2ccc(Nc3nc(Nc4ccccc4)nc(Nc4ccccc4)n3)cc2)cc1: 0.0
- O=C(CS(=O)(=O)c1nc2ccccc2nc1-c1ccccc1)Nc1ccc(F)cc1: 0.0

[Q] Hello, I am checking results. What call was entered for CCCCN(CCCC)C(=O)[C@H](CC)[C@@H]1CC[C@@H](C)[C@@H]([C@H](C)[C@@H](O)[C@@H](C)C(=O)[C@H](CC)C2O[C@]3(C=C[C@@H](O)[C@]4(CC[C@@](C)([C@H]5CC[C@](O)(CC)[C@H](C)O5)O4)O3)[C@H](C)C[C@@H]2C)O1 (some centres not stated) ?
[A] 0.0

[Q] Entry to check: "COc1cc2oc(-c3cccc(C(=O)Nc4ccc(Cl)cc4)c3)cc(=O)c2c(OC)c1OC"
[A] 0.0

[Q] Entry to check: "CO[C@H]1C[C@@H]2CC[C@@H](C)[C@@](O)(O2)C(=O)C(=O)N2CCCC[C@H]2C(=O)O[C@H]([C@H](C)C[C@@H]2CC[C@@H](OC(=O)C(C)(CO)CO)[C@H](OC)C2)CC(=O)[C@H](C)/C=C(\C)[C@@H](O)[C@@H](OC)C(=O)[C@H](C)C[C@H](C)\C=C/C=C/C=C/1C"
[A] 1.0

[Q] Entry to check: "O=C1NC(=NCCc2ccc(F)cc2)S/C1=C\c1ccc2ncccc2c1"
[A] 0.0

###

Each entry below lists one item and its recorded TGI value.
system: PC-3 prostate; assay: NCI tumour cell line growth inhibition, 48 h

Here's what some known entries look like.
* CCS(=O)C(=O)N(O)c1ccc(Cl)cc1 (stereo not given) | > 100 µM
* COc1ccc(-c2cc(=O)c3c(O)c(OC)c(OC)c(OC)c3o2)cc1OC | > 100 µM
* O=C(O)c1nc2ccccc2nc1Nc1ccc(Cl)c(Cl)c1 | > 100 µM
* Cn1cc(/C=C\[N+](=O)[O-])c2ccccc21 | > 100 µM

[Q] Data request, read-out TGI, for "CC(C)[C@@H]1CC[C@@H](C)C[C@H]1OC(=O)c1c2n(c3ccccc13)C[C@H]1OC(C)(C)O[C@@H]21"
[A] > 100 µM

[Q] Entry to check: "COc1ccc2nc3cc(Cl)ccc3c(NCCCNCCO)c2c1"
[A] 2.54 µM

[Q] Entry to check: "C=C1C(=O)O[C@H]2[C@H]1CC/C(COC(=O)c1cc(OC)c(OC)c(OC)c1)=C\CC[C@@]1(C)O[C@@H]21"
[A] 4.49 µM

[Q] Entry to check: COc1ccc(C2=Nc3c(nc(OC)[nH]c3=O)NC(c3ccccc3)C2)cc1 (stereo not given)
[A] > 100 µM

[Q] Entry to check: "COc1nc(N=P(c2ccccc2)(c2ccccc2)c2ccccc2)cc(=O)n1C"
[A] > 100 µM

[Q] Entry to check: "C/C(=N\O)c1ccc2ccc3ccccc3c2c1"
[A] > 100 µM
